We begin with a simple list: items and their reported Activity.
- assay.name: Antioxidant activity assessed as AAPH free radical scavenging activity by measuring trolox equivalent by oxygen radical absorbance capacity method
- Format: functional

[
  {
    "smiles.input": "O=C(/C=C/c1ccc(O)cc1)NCCC1CCN(Cc2ccccc2)CC1",
    "Activity, equiv": 1.7
  },
  {
    "smiles.input": "O=C(/C=C/c1ccc(O)c(O)c1)NCCC1CCN(Cc2ccccc2)CC1",
    "Activity, equiv": 1
  },
  {
    "smiles.input": "O=C(/C=C/c1cccc(O)c1)NCCC1CCN(Cc2ccccc2)CC1",
    "Activity, equiv": 2.2
  },
  {
    "smiles.input": "COc1ccc(/C=C/C(=O)Nc2ccc(CN(C)Cc3ccccc3)cc2)c(OC)c1",
    "Activity, equiv": 0.5
  },
  {
    "smiles.input": "COc1cc(/C=C/C(=O)NCCC2CCN(Cc3ccccc3)CC2)ccc1O",
    "Activity, equiv": 1.8
  }
]

###

We begin with a simple list: items and their reported IC50.
- study.system: Acetylcholinesterase (Homo sapiens, UniProt P22303)
- Sequence (P22303 whole entry): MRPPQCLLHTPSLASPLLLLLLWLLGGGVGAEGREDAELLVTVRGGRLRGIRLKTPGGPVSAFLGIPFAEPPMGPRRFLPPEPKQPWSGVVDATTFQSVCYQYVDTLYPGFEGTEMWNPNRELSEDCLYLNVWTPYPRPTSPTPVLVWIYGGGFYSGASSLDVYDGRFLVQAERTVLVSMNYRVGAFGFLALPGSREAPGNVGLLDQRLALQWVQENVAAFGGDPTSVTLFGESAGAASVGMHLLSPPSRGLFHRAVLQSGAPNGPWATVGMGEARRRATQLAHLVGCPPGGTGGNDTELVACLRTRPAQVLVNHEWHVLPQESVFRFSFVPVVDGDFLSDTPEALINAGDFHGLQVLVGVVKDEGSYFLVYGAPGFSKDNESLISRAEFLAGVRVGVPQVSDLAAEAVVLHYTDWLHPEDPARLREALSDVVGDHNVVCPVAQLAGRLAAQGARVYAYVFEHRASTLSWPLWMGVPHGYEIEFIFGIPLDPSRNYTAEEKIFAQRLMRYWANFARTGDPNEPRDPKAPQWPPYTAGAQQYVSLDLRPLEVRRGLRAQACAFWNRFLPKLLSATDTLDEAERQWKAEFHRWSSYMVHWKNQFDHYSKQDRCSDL
- assay.name: Inhibition of human recombinant AChE using acetylthiocholine iodide as substrate preincubated for 5 mins followed by substrate addition measured for 5 mins by Ellman's method

[
  {
    "smiles.input": "O=C(/C=C/c1ccc(O)cc1O)NCCC1CCN(Cc2ccccc2)CC1",
    "IC50": "990 nM"
  },
  {
    "smiles.input": "O=C(/C=C/c1ccc(O)cc1)NCCC1CCN(Cc2ccccc2)CC1",
    "IC50": "1010 nM"
  },
  {
    "smiles.input": "COc1cccc(/C=C/C(=O)NCCC2CCN(Cc3ccccc3)CC2)c1",
    "IC50": "750 nM"
  },
  {
    "smiles.input": "O=C(/C=C/c1cccc(O)c1)NCCC1CCN(Cc2ccccc2)CC1",
    "IC50": "1120 nM"
  }
]
